- Test system: Enterococcus faecium KIH-234
- Protocol description: MIC of antibiotics for the strain used
- Assay type: cell-based
- Conditions used: KIH234, E. faecium KIH-234, collected from a patient
Property: MIC; scope: individual molecules
The reply should be a number in µg/mL, with the unit left off.

Answered cases to consult:
* CC1(C)S[C@@H]2[C@H](NC(=O)Cc3ccccc3)C(=O)N2[C@H]1C(=O)O | 16
* CC1(C)S[C@@H]2[C@H](NC(=O)[C@H](N)c3ccccc3)C(=O)N2[C@H]1C(=O)O | 16

Consider the record given below.
**Q:** Name the recorded MIC for `CN[C@H](CC(C)C)C(=O)N[C@H]1C(=O)N[C@@H](CC(N)=O)C(=O)N[C@H]2C(=O)N[C@H]3C(=O)N[C@H](C(=O)N[C@H](C(=O)O)c4cc(O)cc(O)c4-c4cc3ccc4O)[C@H](O)c3ccc(c(Cl)c3)Oc3cc2cc(c3O[C@@H]2O[C@H](CO)[C@@H](O)[C@H](O)[C@H]2O[C@H]2C[C@](C)(N)[C@H](O)[C@H](C)O2)Oc2ccc(cc2Cl)[C@H]1O` .
**A:** 0.5
